Field: EC50. Provide a value for each of the binders that follow.
tested_system: T1, NCR3 (antigen of the ELISA in the affinity-maturation table) (human, UniProt O14931 19-135, limits assumed)
T1 construct: also called Natural Cytotoxicity Triggering Receptor 3
T1 sequence (looked up): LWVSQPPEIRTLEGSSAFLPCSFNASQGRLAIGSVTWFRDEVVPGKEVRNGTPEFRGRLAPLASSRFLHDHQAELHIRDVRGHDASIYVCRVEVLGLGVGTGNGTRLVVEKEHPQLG
run_description: ELISA, Fab on NCR3
Numbers only, in nM.

Ask | Look at this binder and give its reported EC50. NCR3.18.18 (Fab, V domains shown, substitutions derived against parental HC3) VH: EVQLVESGGGLVQPGGSLRLSCAASGFNVSSSSIHWVRQAPGKGLEWVASISSSSGSTSYADSVKGRFTISADTSKNTAYLQMNSLRAEDTAVYYCARRVSSNYMSYYDSFYYAGMDYWGQGTLVTVSS VL: DIQMTQSPSSLSASVGDRVTITCRASQSVSSAVAWYQQKPGKAPKLLIYSASSLYSGVPSRFSGSRSGTDFTLTISSLQPEDFATYYCQQSSSSLITFGQGTKVEIKR
Reply | 2.2

Ask | Look at this binder and give its reported EC50. NCR3.18.10 (Fab, V domains shown, substitutions derived against parental HC3) VH: EVQLVESGGGLVQPGGSLRLSCAASGFNVSSSSIHWVRQAPGKGLEWVASISSSSGSTSYADSVKGRFTISADTSKNTAYLQMNSLRAEDTAVYYCARRKSSYYMSYYDSFYYAGMDYWGQGTLVTVSS VL: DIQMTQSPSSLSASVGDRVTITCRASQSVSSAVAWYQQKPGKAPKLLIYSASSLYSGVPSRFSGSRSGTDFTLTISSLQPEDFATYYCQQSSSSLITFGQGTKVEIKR
Reply | 1.11

Ask | Look at this binder and give its reported EC50. NCR3.18.3 (Fab, V domains shown, substitutions derived against parental HC3) VH: EVQLVESGGGLVQPGGSLRLSCAASGFNVSSSSIHWVRQAPGKGLEWVASISSSSGSTSYADSVKGRFTISADTSKNTAYLQMNSLRAEDTAVYYCARRIGSIYRSYYDSFYYAGMDYWGQGTLVTVSS VL: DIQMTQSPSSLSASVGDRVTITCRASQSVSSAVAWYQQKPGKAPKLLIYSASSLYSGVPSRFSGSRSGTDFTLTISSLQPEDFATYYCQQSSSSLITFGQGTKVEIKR
Reply | 0.68

Ask | Look at this binder and give its reported EC50. NCR3.18.9 (Fab, V domains shown, substitutions derived against parental HC3) VH: EVQLVESGGGLVQPGGSLRLSCAASGFNVSSSSIHWVRQAPGKGLEWVASISSSSGSTSYADSVKGRFTISADTSKNTAYLQMNSLRAEDTAVYYCARRKSSSYWSYYDSFYYAGMDYWGQGTLVTVSS VL: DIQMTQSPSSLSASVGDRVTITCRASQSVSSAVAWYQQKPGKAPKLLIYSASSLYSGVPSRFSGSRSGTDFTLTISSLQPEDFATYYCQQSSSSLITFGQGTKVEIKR
Reply | 0.51

Now take the following binder into account.
Ask | Look at this binder and give its reported EC50. NCR3.18.6 (Fab, V domains shown, substitutions derived against parental HC3) VH: EVQLVESGGGLVQPGGSLRLSCAASGFNVSSSSIHWVRQAPGKGLEWVASISSSSGSTSYADSVKGRFTISADTSKNTAYLQMNSLRAEDTAVYYCARRISSSYMSYYDSFYYAGMDYWGQGTLVTVSS VL: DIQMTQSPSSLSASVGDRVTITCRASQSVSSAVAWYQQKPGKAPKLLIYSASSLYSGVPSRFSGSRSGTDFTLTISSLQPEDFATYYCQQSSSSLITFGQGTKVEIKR
Reply | 1.38
